- EXPERIMENTAL DETAILS: Thermodynamic solubility in water (spectrophotometric method)
- STUDY CONDITIONS: 37 °C, thermodynamic from solid
PROPERTY NAME: solubility at 24 h
Answers without a unit are incomplete; give the number and then its unit.

Given item Cc1ccc(S(=O)(=O)O)cc1.Cn1ncc2c1Nc1cc(Cl)ccc1N(C(=O)c1ccc(CNC(=O)C3CC3)c(F)c1)C2 [Tosylate] , the value recorded as its solubility at 24 h is 40 µg/mL

---

- EXPERIMENTAL DETAILS: Oral availability: plasma exposure in rats after oral dosing of suspensions
- Assay type: in vivo
- STUDY CONDITIONS: in vivo, po; rat, suspension in 0.5% HPMC, 10 mg/kg p.o.
PROPERTY NAME: Cmax (ng/mL)
Dear colleague, please return just the value in ng/mL, with no unit written.

Cmax measured on Cc1ccc(S(=O)(=O)O)cc1.Cn1ncc2c1Nc1cc(Cl)ccc1N(C(=O)c1ccc(CNC(=O)C3CC3)c(F)c1)C2 [Tosylate] = 209
